Recorded values, source PubChem BioAssay (NCI).

Tested on: SN12C renal
Assay: NCI-60 one-dose screen, 48 h
Conditions: 10 µM unless noted
Procedure: Growth inhibition of the SN12C human tumor cell line is measured as a screen for anti-cancer activity. Cells are grown in 96 well plates and exposed to the test compound for 48 hours. Compounds are tested at a single concentration, which is 10^-5 M for most compounds. The reported endpoint is percent growth (GI% or GIPRCNT), where numbers from 0 - 100% represent growth inhibition, and numbers from -100% - 0 represent cell death. For example, a value of 40 represents 60% growth inhibition. […]
This is part of a sample that, as a whole, favours compounds with a hit. Of some 83,000 tested, about 20% had one in any assay. The source made the active and inactive calls. How the source made its calls: active means growth percent below 10; inactive means the rest.
Select the correct class. Options are active, inactive and nothing else.

stdin: For this compound, state the assay outcome: COc1ccc(C2C(C#N)=C(N)Oc3c2ccc2ccccc32)cc1 (stereo not given)
stdout: inactive

stdin: For this compound, state the assay outcome: O=C(c1ccccc1)C1OC1c1ccc([N+](=O)[O-])cc1 (stereo not given)
stdout: inactive

stdin: For this compound, state the assay outcome: `C/C(=N/NC(=S)Nc1ccccc1)c1nc2ccc(Cl)cc2[nH]1`
stdout: active

stdin: For this compound, state the assay outcome: `CCCCCCCC[C@@H](O)CC(=O)N[C@@H](CC(N)=O)C(=O)N[C@@H](CCC(N)=O)C(=O)N[C@@H](CC(=O)c1cc(C)cc(O)c1C(=O)c1c(O)cccc1O)CC(C)C`
stdout: inactive

stdin: For this compound, state the assay outcome: `Clc1ccc(-c2nc3ccccc3s2)cc1Cl`
stdout: inactive
